// provenance: patent US11618747B2

- assayed target: full length (FL) LXRβ (Homo sapiens, UniProt P55055, DUP175-175)
- Construct: the full length (FL) proteins of LXRα (amino acids 1-447); NP005684; NP009052; expressed in transfected cells; host or cells: HEK293
- Sequence (P55055 with tags, fused parts or gaps DUP175-175): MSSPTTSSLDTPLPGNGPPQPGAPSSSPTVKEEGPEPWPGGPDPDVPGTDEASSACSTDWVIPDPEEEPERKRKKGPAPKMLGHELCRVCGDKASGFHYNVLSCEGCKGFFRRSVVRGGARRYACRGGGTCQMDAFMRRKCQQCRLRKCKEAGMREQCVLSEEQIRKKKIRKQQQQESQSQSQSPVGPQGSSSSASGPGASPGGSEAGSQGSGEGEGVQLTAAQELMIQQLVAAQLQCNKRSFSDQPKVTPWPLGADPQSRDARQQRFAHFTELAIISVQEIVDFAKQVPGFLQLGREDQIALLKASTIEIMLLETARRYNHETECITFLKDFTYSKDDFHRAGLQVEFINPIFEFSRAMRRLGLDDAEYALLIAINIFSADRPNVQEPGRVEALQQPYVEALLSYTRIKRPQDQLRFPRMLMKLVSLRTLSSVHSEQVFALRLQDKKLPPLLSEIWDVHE
- test details: LXR Gal4 reporter transient transfection assay (FL-M2H Gal4β)
- Type: cell-based
- test settings: HEK293 cells, full length LXRβ; read-out: FL-M2H Gal4β (EC50 range)
pEC50: −log10 of the molar value.
pEC50 values for the compounds below.

| compound | pEC50 |
| --- | --- |
| COc1ccc(S(=O)(=O)n2c(-c3cccc(N4CC(C(=O)O)C4)c3)c(-c3ccsc3C#N)c3cc(F)ccc32)cn1 | 6.00 to 7.00 |
| Cc1ccc(S(=O)(=O)n2c(-c3cccc(-c4cc(C(=O)O)n[nH]4)c3)c(-c3ccsc3C#N)c3cc(F)ccc32)cc1 | 5.00 to 6.00 |
| Cc1ccc(S(=O)(=O)n2c(-c3cccc(N4CC(C)(C(=O)O)C4)c3)c(-c3ccsc3C#N)c3cc(F)ccc32)cc1 | > 7.00 |
| Cc1ccc(S(=O)(=O)n2c(-c3cccc(C4(C)CC4C(=O)O)c3)c(-c3ccsc3C#N)c3cc(F)ccc32)cc1 (stereo not shown) [3/1] | 6.00 to 7.00 |

====

- assayed target: full length (FL) LXRα (Homo sapiens, UniProt Q13133)
- Construct: the full length (FL) proteins of LXRα (amino acids 1-447); NP005684; expressed in transfected cells; host or cells: HEK293
- Sequence (Q13133 whole entry, the tested form may be a part): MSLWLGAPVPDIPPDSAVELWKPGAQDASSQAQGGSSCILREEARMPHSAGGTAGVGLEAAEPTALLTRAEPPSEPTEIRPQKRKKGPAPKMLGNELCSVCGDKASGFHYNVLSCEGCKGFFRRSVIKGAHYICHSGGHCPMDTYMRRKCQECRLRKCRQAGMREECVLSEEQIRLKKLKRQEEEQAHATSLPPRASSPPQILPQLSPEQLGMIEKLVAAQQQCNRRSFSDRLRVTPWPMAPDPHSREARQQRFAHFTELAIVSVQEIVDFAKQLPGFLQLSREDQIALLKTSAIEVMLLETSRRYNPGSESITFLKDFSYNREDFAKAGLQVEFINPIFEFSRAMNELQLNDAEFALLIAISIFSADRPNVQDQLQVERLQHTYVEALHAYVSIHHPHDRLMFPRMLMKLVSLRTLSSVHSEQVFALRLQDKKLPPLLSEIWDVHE
- test details: LXR Gal4 reporter transient transfection assay (FL-M2H Gal4α)
- Type: cell-based
- test settings: HEK293 cells, full length LXRα; read-out: FL-M2H Gal4α (EC50 range)
pEC50: −log10 of the molar value.

| compound | pEC50 |
| --- | --- |
| COC(=O)C(C)(C)N(C)C(=O)C1CN(c2cccc(-c3c(-c4ccsc4C#N)c4cc(F)ccc4n3S(=O)(=O)c3ccc(C)cc3)c2)C1 | 6.00 to 7.00 |
| O=C(O)c1ccc(-c2cccc(-c3c(-c4ccsc4C4COC4)c4cc(F)ccc4n3S(=O)(=O)c3ccc(C(F)F)cc3)c2)c(Cl)c1 | > 7.00 |
| Cc1ccc(S(=O)(=O)n2c(-c3cccc(C4CC(C(=O)O)C4)c3)c(-c3ccsc3C#N)c3cc(F)ccc32)cc1 (stereo not shown) | 6.00 to 7.00 |
| N#Cc1ccncc1-c1c(-c2cccc(-c3cc(F)c(C(=O)O)cc3Cl)c2)n(S(=O)(=O)c2ccc(C(F)F)cc2)c2ccc(F)cc12 | > 7.00 |
| CC1(C)CCN(S(=O)(=O)n2c(-c3cccc(-c4ccc(C(=O)O)cc4)c3)c(-c3ccsc3C#N)c3ccccc32)CC1 | 6.00 to 7.00 |
| N#Cc1sccc1-c1c(-c2cccc(C3CC3C(=O)NO)c2)n(S(=O)(=O)c2ccc(Cl)cc2)c2ccccc12 (stereo not shown) | > 7.00 |
| Cc1ccc(S(=O)(=O)n2c(-c3cc(N4CC(C(=O)O)C4)ccc3F)c(-c3ccsc3C#N)c3cc(F)ccc32)cc1 | > 7.00 |

====

Examples of compounds with documented EC50 follow.
- assayed target: LXRβ ligand-binding domain (Homo sapiens, UniProt P55055, DUP175-175)
- Construct: amino acids 156-461; NP009052; made in house; host or cells: E. coli
- Sequence (P55055 with tags, fused parts or gaps DUP175-175 limits assumed): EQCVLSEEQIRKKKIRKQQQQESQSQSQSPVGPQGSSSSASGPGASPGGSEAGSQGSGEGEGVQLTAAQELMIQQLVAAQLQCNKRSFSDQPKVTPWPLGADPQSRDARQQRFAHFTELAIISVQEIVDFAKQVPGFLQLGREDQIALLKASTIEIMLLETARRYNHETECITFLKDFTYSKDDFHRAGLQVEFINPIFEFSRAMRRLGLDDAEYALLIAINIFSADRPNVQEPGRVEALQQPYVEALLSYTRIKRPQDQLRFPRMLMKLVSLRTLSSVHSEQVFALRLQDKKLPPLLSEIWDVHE
- test details: TR-FRETβ activity assay (NCoA3 coactivator peptide recruitment)
- Type: biochemical
- test settings: TR-FRET, 1 μM 24(S)-25-epoxycholesterol prestimulation; read-out: FRETβ (EC50 range)
parameter measured: EC50

| compound | recorded measurement |
| --- | --- |
| Cc1ccc(S(=O)(=O)n2c(-c3cccc(N4CCC(C(=O)O)CC4)c3)c(-c3ccsc3C#N)c3cc(F)ccc32)cc1 [3/38] | 100 to 1000 nM |
| N#Cc1sccc1-c1c(-c2cccs2)n(S(=O)(=O)c2ccc(F)cc2)c2ccccc12 [20/11] | 100 to 1000 nM |
| N#Cc1sccc1-c1c(-c2cccc(N3CC(C(=O)O)C3)c2)n(S(=O)(=O)c2ccc3ccccc3c2)c2ccc(F)cc12 [3/13] | 1000 to 10000 nM |
| Cc1ccc(S(=O)(=O)n2c(-c3ccc(CC(C)(C)C(=O)O)s3)c(-c3ccsc3C#N)c3ccccc32)cc1 [3/16] | 1000 to 10000 nM |
| COc1c(C(=O)O)ccc(-c2cccc(-c3c(-c4ccccc4C#N)c4cc(F)ccc4n3S(=O)(=O)c3ccc(C(F)F)cc3)c2)c1Cl [11/27] | < 100 nM |
| Cc1ccc(S(=O)(=O)n2c(-c3cccc(-c4ccc(CN(C)C)cc4)c3)c(-c3ccsc3C#N)c3cc(F)ccc32)cc1 [8/1] | 100 to 1000 nM |
| N#Cc1sccc1-c1c(-c2ccccc2)n(S(=O)(=O)c2ccc(-c3cccc(C(=O)O)c3)cc2)c2ccccc12 [27/2] | 1000 to 10000 nM |
| Cc1ccc(S(=O)(=O)n2c(-c3cc(N4CC(C(=O)O)C4)ccc3F)c(-c3ccsc3C#N)c3cc(F)ccc32)cc1 [3/41] | 1000 to 10000 nM |
| Cc1ccc(S(=O)(=O)n2c(-c3cccc(N4CC(C(=O)NC(C)(C)C(=O)O)C4)c3)c(-c3ccsc3C#N)c3cc(F)ccc32)cc1 [3/52] | 100 to 1000 nM |
| N#Cc1sccc1-c1c(-c2cccs2)n(S(=O)(=O)c2ccc(F)cc2F)c2ccccc12 [20/12] | 1000 to 10000 nM |
| N#Cc1ccncc1-c1c(-c2cccs2)n(S(=O)(=O)c2ccc(Cl)cc2)c2ccccc12 [20/2] | 1000 to 10000 nM |
| N#Cc1ccc(S(=O)(=O)n2c(-c3cccc(-c4ccc(C(=O)O)cc4Cl)c3)c(-c3ccsc3C#N)c3cc(F)ccc32)cc1 [11/20] | 100 to 1000 nM |
| Cc1ccc(S(=O)(=O)n2c(-c3cccc(C#CC(C)(C)C(=O)O)c3)c(-c3ccsc3C#N)c3cc(F)ccc32)cc1 [5/4] | 1000 to 10000 nM |
| CC(O)(C(=O)O)c1ccc(-c2cccc(-c3c(-c4c(C#N)cccc4C#N)c4cc(F)ccc4n3S(=O)(=O)c3ccc(C(F)F)cc3)c2)cc1 (centres unmarked) [11/59] | < 100 nM |
